Biological target: CB1 (mutant) (Homo sapiens)
Sequence (P21554 1-417, change not shown): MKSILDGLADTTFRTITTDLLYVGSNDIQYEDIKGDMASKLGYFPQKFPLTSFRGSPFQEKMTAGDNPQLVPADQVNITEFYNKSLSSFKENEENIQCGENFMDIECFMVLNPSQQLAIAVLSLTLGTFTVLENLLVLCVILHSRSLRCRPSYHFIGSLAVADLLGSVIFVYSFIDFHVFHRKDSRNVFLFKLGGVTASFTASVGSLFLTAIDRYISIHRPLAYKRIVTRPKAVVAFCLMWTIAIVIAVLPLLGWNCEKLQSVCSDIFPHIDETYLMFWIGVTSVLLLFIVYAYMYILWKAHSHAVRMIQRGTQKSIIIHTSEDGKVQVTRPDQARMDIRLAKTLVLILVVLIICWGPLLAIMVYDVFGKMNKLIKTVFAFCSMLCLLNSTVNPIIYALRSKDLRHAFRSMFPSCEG
Test: R-SAT functional receptor assay, CB1 (mutant, truncated after amino acid 417)
Assay type: cell-based
Conditions: Appendix A; R-SAT CB1; receptor form (mutant or wild-type) not stated; read-out: pIC50 (converted)
measurement.label: IC50 (nM)
Unit nM implied. Number only.

Query: Fill blank: measured IC50 of the compound O=C(NCCCC(F)(F)F)c1ccc2c(c1)N=C(c1ccccn1)c1ccccc1S2 [drawing 871] is ____.
Reply: 15.8

Query: Fill blank: measured IC50 of the compound O=C(NCc1ccco1)c1ccc2c(c1)N=C(c1ccc(F)cc1)c1ccccc1S2 [drawing 689] is ____.
Reply: 6.31

Query: Fill blank: measured IC50 of the compound CCCC1=Nc2cc(C(=O)NCCOC)ccc2Sc2ccccc21 is ____.
Reply: 200

Query: Fill blank: measured IC50 of the compound CCCCCC1=Nc2cc(C(=O)NN3CCCCC3)ccc2Sc2ccccc21 is ____.
Reply: 251

Query: Fill blank: measured IC50 of the compound COc1ccc(C2=Nc3cc(C(=O)NN4[C@H](C)CCC[C@@H]4C)ccc3Sc3ccccc32)cc1 [drawing 730] is ____.
Reply: 79.4

Query: Fill blank: measured IC50 of the compound O=C(NC1CCC(F)(F)CC1)c1ccc2c(c1)N=C(c1ccc(F)cc1)c1ccccc1S2 [drawing 821] is ____.
Reply: 12.6

Query: Fill blank: measured IC50 of the compound O=C(NN1CCCCC1)c1ccc2c(c1)N=C(Nc1ccccc1)c1ccccc1S2 is ____.
Reply: 2000

Query: Fill blank: measured IC50 of the compound O=C(NCc1cccc(Cl)c1)c1ccc2c(c1)N=C(N1CCC(F)CC1)c1ccccc1S2 [drawing 679] is ____.
Reply: 6.31

Attribution: patent US20080090805A1
